Please respond with reported growth for every item in the list.
Test system: SW-620 colon
Assay: NCI-60 one-dose screen, 48 h (100 = growth as untreated, 0 = no growth, -100 = all killed)
Conditions: 10 µM unless noted
This is part of a sample that, as a whole, favours compounds with a hit. Of some 83,000 tested, about 20% had one in any assay.
One number for each entry, in %.

Your task in this section: give growth for each listed record.
1. CCN1CCN(Cc2ccc(C(=O)Nc3ccc(C)c(Oc4ccc(-c5[nH]nc6ncnc(N)c56)cc4)c3)cc2C(F)(F)F)CC1
2. O=C(Nc1ccc(Br)cc1)Nc1nc2ccc([N+](=O)[O-])cc2s1

Result:
115
3.15

###

System: RXF 393 renal
Test: NCI-60 one-dose screen, 48 h (100 = growth as untreated, 0 = no growth, -100 = all killed)
Settings: 10 µM unless noted
This is part of a sample that, as a whole, favours compounds with a hit. Of some 83,000 tested, about 20% had one in any assay.
Would you mind labelling by growth? At or over 90% is fulfilled, under is not fulfilled.

>>> df
                                   molecule  class_assignment
0  O=C1CCCc2nc(Nc3ccc(S(=O)(=O)Nc4ccc([N+](=O)[O-])cc4)cc3)ncc21         fulfilled
1  N=c1c2cc(-c3ccccc3)oc2ncn1/N=C/c1ccc(Br)cc1     not fulfilled
2  Cc1ccc2sc3c(c2c1)OC(N)=C(C#N)C3c1cccc(F)c1 (centres undefined)     not fulfilled
3  C[C@@H](Nc1c(C#N)cnc2ccc(-c3cnc(Cl)c(NS(C)(=O)=O)c3)cc12)c1ccccc1     not fulfilled
4  NS(=O)(=O)c1ccc(Nc2cc(-c3ccccc3)nc(SCC(=O)c3ccccc3)n2)cc1         fulfilled

Ask: I'd appreciate it if you could say whether Nc1nc(-c2cccc([N+](=O)[O-])c2)c(N=Nc2cccc([N+](=O)[O-])c2)s1 has growth at least equal to 90%.
Result: not fulfilled

Ask: I'd appreciate it if you could say whether CCN1CCN(Cc2cn(-c3ccc(S(N)(=O)=O)cc3)nn2)CC1 has growth at least equal to 90%.
Result: fulfilled

Ask: I'd appreciate it if you could say whether Nc1cc(-c2c[nH]c3ccc(Br)cc23)nc2cc(-c3c[nH]c4ccc(Br)cc34)nn12 has growth at least equal to 90%.
Result: not fulfilled

###

Tested on: SK-OV-3 ovarian
Assay: NCI-60 one-dose screen, 48 h (100 = growth as untreated, 0 = no growth, -100 = all killed)
Conditions: 10 µM unless noted
The panel holds about 83,000 compounds, 20% with a hit somewhere; the sample as a whole holds those more often.
measured-parameter: growth (%)
Numbers only, in %.

>>> df
                                   compound    tested_target  units_text  result
0  CCO/C=N/C1=C(C#N)C(c2ccc(Cl)cc2)c2sc3c(CC)cccc3c2O1 (stereo not given)  SK-OV-3 ovarian           %    58.2
1                        C#Cc1nc(C(C)=O)cs1  SK-OV-3 ovarian           %      93
2  Oc1[nH]c2ccccc2c1Nn1c(N=N/C=c2/ccc3c(c2)C=NN=3)n[nH]c1=S  SK-OV-3 ovarian           %     106
3  CS(=O)(=O)Nc1cc(-c2ccc3ncc(C#N)c(N[C@H](CO)c4ccccc4)c3c2)cnc1Cl  SK-OV-3 ovarian           %    81.1

Now let's try a different one.
Sure, the documented growth for CN1CCN(Cc2ccc(NC(=O)c3cncc(C#Cc4cnc5ccc(NCCCO)nn45)c3)cc2C(F)(F)F)CC1 is -47.5
